Study Target: PD-1/PD-L1 (Homo sapiens (Human))
Sequence (Q9NZQ7 19-238): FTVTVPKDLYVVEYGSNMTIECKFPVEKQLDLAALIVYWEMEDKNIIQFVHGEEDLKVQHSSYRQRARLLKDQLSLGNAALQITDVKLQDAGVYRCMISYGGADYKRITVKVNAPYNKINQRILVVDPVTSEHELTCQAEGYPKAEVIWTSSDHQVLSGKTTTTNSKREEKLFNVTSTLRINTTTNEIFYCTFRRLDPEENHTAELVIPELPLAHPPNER
Assay: PD-1/PD-L1 Binding Assay (Alphascreen)
Run Conditions: numeric values
pIC50: −log10 of the molar value.
Readout Kind: pIC50

Recorded pIC50, per entry:
Cc1c(-c2nc3cc(CN(C)CCN(C)C)c(OC(F)F)cc3o2)cccc1-c1cccc(-c2nc3cc(CN4CCC[C@H]4C(=O)O)c(OC(F)F)cc3o2)c1C: 8.60
Cc1c(-c2ccc(CN(C)CCCN(C)C)cc2)cccc1-c1cccc(-c2nc3cc(CN4CCC[C@H]4C(=O)O)c(OC(F)F)cc3o2)c1C: 8.33
Cc1c(-c2nc3c(o2)CCN(CC(=O)O)C3)cccc1-c1cccc(-c2nc3cc(CN4CCC[C@H]4C(=O)O)c(OC(F)F)cc3o2)c1C: 8.64
Cc1c(-c2nc3c(o2)CCN(CCO)C3)cccc1-c1cccc(-c2nc3cc(CN4CCC[C@H]4C(=O)O)c(OC(F)F)cc3o2)c1C: 8.85
Cc1c(-c2nc3cc(CNCCO)c(OC(F)F)cc3o2)cccc1-c1cccc(-c2nc3cc(CN4CCC[C@H]4C(=O)O)c(OC(F)F)cc3o2)c1C: 9.21
Cc1c(-c2nc3cc(CN)c(OC(F)F)cc3o2)cccc1-c1cccc(-c2nc3cc(CN4CCC[C@H]4C(=O)O)c(OC(F)F)cc3o2)c1C: 9.01

1 = Cc1c(-c2nc3cc(CNCCS(C)(=O)=O)c(OC(F)F)cc3o2)cccc1-c1cccc(-c2nc3cc(CN4CCC[C@H]4C(=O)O)c(OC(F)F)cc3o2)c1C
2 = COC(=O)[C@@H]1CCCN1Cc1cc2nc(-c3cccc(-c4cccc(-c5nc6cc(CN7CCC[C@H]7C(=O)O)c(OC(F)F)cc6o5)c4C)c3C)oc2cc1OC(F)F
INPUT: Kindly identify the item with the lower pIC50 figure among these two: 1 and 2 Respond using the label that marks the chosen record.
OUTPUT: 2
